Cited source: ChEMBL document CHEMBL5331106

# measurement.target: Undecaprenyl-diphosphatase (Escherichia coli (strain K12), UniProt P60932)
# Sequence (P60932 whole entry): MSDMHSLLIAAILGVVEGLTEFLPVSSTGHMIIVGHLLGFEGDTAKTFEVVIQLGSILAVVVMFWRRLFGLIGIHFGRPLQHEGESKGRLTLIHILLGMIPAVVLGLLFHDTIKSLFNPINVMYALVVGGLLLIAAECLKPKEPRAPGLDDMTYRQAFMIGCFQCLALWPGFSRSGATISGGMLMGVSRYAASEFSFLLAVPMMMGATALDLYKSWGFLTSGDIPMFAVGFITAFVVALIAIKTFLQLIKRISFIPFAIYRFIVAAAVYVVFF
# test.details: Inhibition of UppP in Escherichia coli using FPP as substrate pretreated for 20 mins followed by FPP addition and measured after 60 mins by malachite green based assay
measurement.name: IC50 (µM)
Number in µM, nothing else.

The following compounds have reported results that may help.
compound	measurement.name	data.value
CCCCCCCCCCCNCCNC1C2CC3CC(C2)CC1C3 (stereo not drawn)	IC50	18
CC(C)=CCC/C(C)=C/CCNCCNC1C2CC3CC1CC(F)(C3)C2 (stereo not drawn)	IC50	153
CC(C)=CCC/C(C)=C/CNCCNC1C2CC3CC(C2)CC1C3 (stereo not drawn) [SQ109]	IC50	32

Query :: Which IC50 reading was recorded for the compound CC(C)=CCC/C(C)=C/CNCCOC1C2CC3CC(C2)CC1C3 (stereo not drawn) ?
Result :: 21

Query :: Which IC50 reading was recorded for the compound CC(C)CCCC(C)CCNCCNC1C2CC3CC(C2)CC1C3 (stereo not drawn) ?
Result :: 15

Query :: Which IC50 reading was recorded for the compound CC(C)=CCC/C(C)=C/COCCNC1C2CC3CC(C2)CC1C3 (stereo not drawn) ?
Result :: 91

Query :: Which IC50 reading was recorded for the compound CC(C)=CCC/C(C)=C/C(C)(C)NCCNC1C2CC3CC(C2)CC1C3 (stereo not drawn) ?
Result :: 37

Query :: Which IC50 reading was recorded for the compound CC(C)=CCC/C(C)=C/CCNCCNC1C2CC3CC(C2)CC1C3 (stereo not drawn) ?
Result :: 16
